# Test system: K4 kissing-loop RNA reporter;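 further: bound reporter read as fluorescence of individual clusters on recovered sequencing chips by microscopy, with normalized cluster intensities fitted with a binding model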
# ASSAY_SUMMARY: apparent KD of K4 kissing-loop reporter; higher = weaker reporter binding
# TEST_PARAMETERS: Eterna round: R107; input ligand: arginine 13.2 mM

[
  {
    "BIOSEQUENCE": "GCCGUAGAUGGAAGGAGCGAGUCCAAACCAUAUUGCUGAAAAUUCGAGUGAUGUUCGUAAGCUCAGGUAGGUCGCCAUCUACGGC",
    "apparent KD of K4 kissing-loop reporter (nM)": 184
  },
  {
    "BIOSEQUENCE": "CUAGCUAGCAUGGAAACAUGCUAGCUAGAUUAGGAUAUGACGUAAGUCAGAAGGGAUAAAUGGAGUGAUGUUCCGGACGCAAGUC [#2 Same State - FMN A Attempt #4 (HarryS)]",
    "apparent KD of K4 kissing-loop reporter (nM)": 237
  },
  {
    "BIOSEQUENCE": "UAUUAAUUGUCAGGAUAUCGUAUUCGAGUGAUGUUCGUAUAUCGACGAUAGUCGAUAUUAUUUAUACGAGAAGGGACAUUAUUUA [JR_SSFMNB_Sub005]",
    "apparent KD of K4 kissing-loop reporter (nM)": 260
  }
]
